Values were extracted from patent US5063229A.

system: rat peritoneal neutrophils; assay: Inhibition of ionophore-stimulated release of free arachidonic acid from [14C]-arachidonic acid pre-labelled rat peritoneal neutrophils; format: cell-based; conditions: read-out: IC50, concentration required to inhibit by 50% compared to controls the release of radiolabelled products into supernatant liquid
experimentalReadout: IC50 (µM)
Numbers only here, please. The scale is µM.

Query: // lookup IC50 | system=rat peritoneal neutrophils | key= C=C(C)C(=O)c1nc(SC)n(-c2ccc(C)cc2)c1Br [Example 10]
Response: 10

Query: Another compound to check: CCc1c(OC)nc2nc(C(=O)C#Cc3ccccc3)cn2c1C [Example 18]
Response: 12

Query: Another compound to check: C=C(C)C(=O)c1nc2nc(OC)c(CC)c(C)n2c1Cl [Example 3]
Response: 21

Query: Another compound to check: C=C(C)C(=O)c1nc2ccccn2c1Br [Example 25]
Response: 28

Query: Another compound to check: CCc1c(OC)nc2nc(C(=O)C#CCO)cn2c1C [Example 23]
Response: 46

Query: Another compound to check: C=C(C)C(=O)c1nc2nc(OC)cc(C)n2c1Br [Example 4]
Response: 7.4

Query: Another compound to check: C=C(C)C(=O)c1nc(SC)n(-c2ccc(F)cc2)c1Br [Example 12]
Response: 15

Query: Another compound to check: C=C(C)C(=O)c1nc(SC(C)C)n(CC)c1Br [Example 15]
Response: 17

Query: Another compound to check: C=C(C)C(=O)c1cn(-c2ccc(CC)cc2)c(SC)n1 [Example 6]
Response: 3.8

Query: Another compound to check: C=C(C)C(=O)c1nc2nc(OC)c(CC)c(C)n2c1Br [Example 2]
Response: 17

Query: Another compound to check: C=C(C)C(=O)c1nc(SC)n(-c2ccc(OC)cc2)c1Br [Example 8]
Response: 7.2

Query: Another compound to check: CCc1c(OC)nc2nc(C(=O)C#CC(C)(C)C)cn2c1C [Example 19]
Response: 16

Query: Another compound to check: CC#CC(=O)c1nc2nc(OC)c(CC)c(C)n2c1Br [Example 24]
Response: 7.2

Query: Another compound to check: C=C(C)C(=O)c1nc2nc(SC)c(CC)c(C)n2c1Br [Example 1]
Response: 6.8

Query: Another compound to check: O=C(C#Cc1ccccc1)c1nc2ccccn2c1Br [Example 28]
Response: 5.2

Query: Another compound to check: C=C(C)C(=O)c1nc([S+]([O-])C(C)C)n(-c2ccc(CC)cc2)c1Cl (stereo not drawn) [Example 16]
Response: 4.4

Query: Another compound to check: C=CC(=O)c1nc(SC)n(-c2ccc(OC)cc2)c1Br [Example 13]
Response: 2.3

Query: Another compound to check: CCc1c(OC)nc2nc(C(=O)C#Cc3ccccc3)c(Br)n2c1C [Example 21]
Response: 1.5

Query: Another compound to check: C=CC(=O)c1nc2nc(OC)c(CC)c(C)n2c1Br [Example 5]
Response: 1.7
